biological target: CqsS (Vibrio cholerae serotype O1, UniProt Q9KM66); construct: endogenous in cells; experiment: cell-based; settings: light production, reporter strain WN1102, 4 h at 30 °C
Sequence (Q9KM66 whole entry, looked up): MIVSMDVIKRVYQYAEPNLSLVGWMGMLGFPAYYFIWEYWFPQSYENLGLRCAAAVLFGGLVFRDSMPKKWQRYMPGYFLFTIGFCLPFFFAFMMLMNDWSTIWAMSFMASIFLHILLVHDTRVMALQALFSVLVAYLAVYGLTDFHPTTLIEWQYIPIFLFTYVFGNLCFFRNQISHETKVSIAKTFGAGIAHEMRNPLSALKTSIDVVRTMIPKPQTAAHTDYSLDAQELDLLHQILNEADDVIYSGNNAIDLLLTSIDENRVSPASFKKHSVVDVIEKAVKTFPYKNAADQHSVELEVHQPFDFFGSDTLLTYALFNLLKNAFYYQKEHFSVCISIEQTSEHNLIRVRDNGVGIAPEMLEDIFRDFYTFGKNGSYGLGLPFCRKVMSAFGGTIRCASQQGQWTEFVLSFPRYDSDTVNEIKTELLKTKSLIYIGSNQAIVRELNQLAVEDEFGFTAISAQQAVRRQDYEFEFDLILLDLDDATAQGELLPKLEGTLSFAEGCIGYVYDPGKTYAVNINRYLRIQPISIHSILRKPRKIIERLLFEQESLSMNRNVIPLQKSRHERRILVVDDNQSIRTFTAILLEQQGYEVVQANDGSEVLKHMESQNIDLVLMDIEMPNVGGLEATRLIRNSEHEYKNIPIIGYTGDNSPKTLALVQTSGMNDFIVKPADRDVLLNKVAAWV
pEC50: −log10 of the molar value.

- compound: "CCCn1nnnc1NCc1ccc(N2CCCC2)cc1"
  pEC50: 7.85
- compound: "CCC(C)NC(=O)Cc1ccc(-c2ccccc2)cc1 (stereo not drawn)"
  pEC50: 6.39
- compound: "CCn1nnnc1NCc1ccc(C(C)C)cc1"
  pEC50: 8.10
- compound: "CCCn1nnnc1NCc1ccc(C(C)C)cc1"
  pEC50: 8.15
- compound: "O=C(Cc1ccc(-c2ccccn2)cc1)NC1CCCC1"
  pEC50: 5.76
- compound: "CCn1nnnc1NCc1ccc(N2CCCC2)cc1"
  pEC50: 8.40
- compound: "CCCn1nnnc1NCc1ccc(N(CC)CC)cc1"
  pEC50: 7.59
- compound: "O=C(Cc1ccc(-c2ccccc2)cc1)NC1CCCC1"
  pEC50: 7.21
- compound: "O=C(Cc1ccc(-c2ccccc2)cc1)NC1CCC1"
  pEC50: 7.28
